Biological target: T1, human MICA004 on cells (human)
T1 construct: whole, on cells; also called CHO-MICA004; C1R-MICA004
T1 sequence (Q29983 whole entry): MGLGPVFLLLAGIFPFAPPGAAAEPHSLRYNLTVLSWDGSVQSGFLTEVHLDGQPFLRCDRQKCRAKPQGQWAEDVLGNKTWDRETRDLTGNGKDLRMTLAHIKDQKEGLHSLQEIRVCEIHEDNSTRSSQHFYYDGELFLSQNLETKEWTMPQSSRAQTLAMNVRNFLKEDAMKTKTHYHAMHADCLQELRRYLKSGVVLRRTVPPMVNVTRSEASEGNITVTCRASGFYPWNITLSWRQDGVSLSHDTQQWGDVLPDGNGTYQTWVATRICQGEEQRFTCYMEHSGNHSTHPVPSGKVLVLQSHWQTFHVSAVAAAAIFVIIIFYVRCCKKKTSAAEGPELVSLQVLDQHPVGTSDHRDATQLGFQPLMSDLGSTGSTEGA
Test: flow cytometry, CHO-MICA004 cells
PROPERTY_LABEL: EC50 (µg/mL)
Use µg/mL as the unit, but write only the number.

Sample answers from the record:
#39 (antibody, human IgG1, V domains shown, also called PL114G03; Hit ID 39) VH: QVQLQQSGAELVRPGTSVKVSCKASGYAFTDYLIEWVKQRPGQGLEWIGGINPGSGSTNYNEKFKGKAILTADKSSSTAYMQLSSLTSDDSAVYFCARLDGNYVGYWGQGTTLTVSS VL: DILLTQSPASLSASVGETVTITCRASGNIHNYLAWYQQKQGKSPQLLVYHAKTLADGVPSRFSGSGSGTQYSLKINSLQPEDFGSYYCQHFWSTPWTFGGGTKLEIK
7.27
1D5 (antibody, human IgG1, kappa, V domains shown, also called ID5) VH: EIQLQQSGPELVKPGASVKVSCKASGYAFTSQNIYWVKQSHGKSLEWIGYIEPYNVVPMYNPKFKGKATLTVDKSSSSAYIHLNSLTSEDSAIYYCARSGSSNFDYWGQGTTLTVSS VL: EIILTQSPTTMAASPGEKITITCSASSSISSHYLHWYQQKSGFSPKLLIYRTSNLASGVPARFSGSGSGTSYSLTIGTMEAEDVATYYCQQGSSLPLTFGAGTKVEIKR
0.157

// switching to the query binder
Measured EC50, #31 (antibody, human IgG1, V domains shown, also called PL116D11; Hit ID 31) VH: EVQLQQSGPELVKPGASVKVSCKASGYAFTKYNIYWVKQSHGKSLEWIGYIDPYNGGTVQNQKFKGKATLTVDKSSSTAYMHLNSLTSEDSAVYYCATTDGYSLFTYWGQGTLVTVSS VL: DIQMTQTTSSLSASLGDRVTISCRASQDIGNYLNWYQQKPDGTVKLLIYYTSRLHSGVPSRFSGSGSGTDYSLTISNLEQEDIATYFCQQGNTLPFTFGSGTKLEIK : 0.221
